measurement target: wild type RET (Homo sapiens (Human), UniProt P07949)
Sequence (P07949 29-1114): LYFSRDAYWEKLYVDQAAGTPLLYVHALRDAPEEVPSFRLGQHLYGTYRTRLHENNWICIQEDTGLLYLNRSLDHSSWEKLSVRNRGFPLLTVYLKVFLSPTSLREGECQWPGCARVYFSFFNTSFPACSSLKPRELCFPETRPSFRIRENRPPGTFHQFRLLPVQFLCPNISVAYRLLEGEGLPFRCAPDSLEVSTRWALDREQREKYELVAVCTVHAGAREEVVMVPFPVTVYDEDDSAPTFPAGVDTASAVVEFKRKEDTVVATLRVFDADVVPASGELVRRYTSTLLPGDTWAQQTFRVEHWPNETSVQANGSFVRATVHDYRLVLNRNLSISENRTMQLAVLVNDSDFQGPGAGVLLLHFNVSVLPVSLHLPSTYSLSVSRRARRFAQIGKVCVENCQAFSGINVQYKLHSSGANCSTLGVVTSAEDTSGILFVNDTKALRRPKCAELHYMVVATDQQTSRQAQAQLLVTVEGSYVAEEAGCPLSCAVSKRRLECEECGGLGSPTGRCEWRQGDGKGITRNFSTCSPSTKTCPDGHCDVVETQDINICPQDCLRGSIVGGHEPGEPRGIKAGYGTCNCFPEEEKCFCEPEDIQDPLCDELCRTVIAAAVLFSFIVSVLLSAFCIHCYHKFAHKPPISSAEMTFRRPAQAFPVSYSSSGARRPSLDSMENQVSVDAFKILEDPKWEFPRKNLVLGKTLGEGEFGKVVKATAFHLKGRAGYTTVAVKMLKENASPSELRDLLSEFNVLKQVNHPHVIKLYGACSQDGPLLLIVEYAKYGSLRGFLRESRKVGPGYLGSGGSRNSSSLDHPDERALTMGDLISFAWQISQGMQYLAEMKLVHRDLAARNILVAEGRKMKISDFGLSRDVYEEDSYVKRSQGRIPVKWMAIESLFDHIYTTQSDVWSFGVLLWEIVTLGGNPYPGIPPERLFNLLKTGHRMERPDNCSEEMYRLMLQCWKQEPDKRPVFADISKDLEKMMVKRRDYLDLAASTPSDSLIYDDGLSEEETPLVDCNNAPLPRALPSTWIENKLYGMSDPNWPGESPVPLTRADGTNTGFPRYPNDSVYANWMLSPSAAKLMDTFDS
pIC50: −log10 of the molar value.
observable: pIC50

Reference set (2 entries):
[[record]]
compound = "Cc1cc(Nc2cc(C)[nH]n2)nc([C@H]2C[C@@H](C(=O)N[C@@H](C)c3ccc(-n4cc(F)cn4)nc3)C2)c1 [Compound 103]"
observable = "pIC50"
endpoint_result = "7.00 to 8.00"

[[record]]
compound = "Cc1cc(Nc2cc(C)[nH]n2)nc([C@]2(F)C[C@H](C(=O)N[C@@H](C)c3ccc(-n4cc(F)cn4)nc3)C2)c1 [Compound 113]"
observable = "pIC50"
endpoint_result = "7.00 to 8.00"


Incoming: Fill in the recorded pIC50 for this compound, with wild type RET (Homo sapiens (Human), UniProt P07949) as test system: Cc1cc(Nc2cc(C)[nH]n2)nc([C@]2(O)C[C@@H](C(=O)N(C)[C@@H](C)c3ccc(-n4cc(F)cn4)nc3)C2)c1 [Compound 116]
Outgoing: 8.00 to 9.00

Incoming: Fill in the recorded pIC50 for this compound, with wild type RET (Homo sapiens (Human), UniProt P07949) as test system: Cc1cc(Nc2cc(C)[nH]n2)nc([C@]2(O)C[C@@H](C(=O)N[C@@H](C)c3ccc(-n4cc(F)cn4)nc3)C2)c1 [Compound 109]
Outgoing: > 9.00

Incoming: Fill in the recorded pIC50 for this compound, with wild type RET (Homo sapiens (Human), UniProt P07949) as test system: CO[C@]1(C(=O)N[C@@H](C)c2cnc(-n3cc(F)cn3)cn2)C[C@H](c2nc(C)cc(Nc3cc(C)[nH]n3)n2)C1 [Compound 123]
Outgoing: > 9.00

Incoming: Fill in the recorded pIC50 for this compound, with wild type RET (Homo sapiens (Human), UniProt P07949) as test system: CO[C@]1(C(=O)NCc2cnc(-n3cc(F)cn3)cn2)C[C@H](c2cc(C)nc(Nc3cc(C)[nH]n3)n2)C1 [Compound 131]
Outgoing: 8.00 to 9.00

Incoming: Fill in the recorded pIC50 for this compound, with wild type RET (Homo sapiens (Human), UniProt P07949) as test system: Cc1cc(Nc2cc(C)[nH]n2)nc([C@H]2C[C@H](C(=O)N[C@H](C)c3ccc(-n4cccn4)nc3)C2)c1 [Compound 101]
Outgoing: > 9.00

Incoming: Fill in the recorded pIC50 for this compound, with wild type RET (Homo sapiens (Human), UniProt P07949) as test system: Cc1cc(Nc2cc(C)[nH]n2)nc([C@H]2C[C@H](C(=O)N[C@@H](C)c3ccc(-n4cc(F)cn4)nc3)C2)n1 [Compound 105]
Outgoing: > 9.00

Incoming: Fill in the recorded pIC50 for this compound, with wild type RET (Homo sapiens (Human), UniProt P07949) as test system: Cc1cc(Nc2cc(C)[nH]n2)nc([C@H]2C[C@](C)(C(=O)N[C@@H](C)c3cnc(-n4cc(F)cn4)cn3)C2)n1 [Compound 110]
Outgoing: > 9.00

Incoming: Fill in the recorded pIC50 for this compound, with wild type RET (Homo sapiens (Human), UniProt P07949) as test system: Cc1cc(Nc2cc(C)[nH]n2)nc([C@]2(F)C[C@@H](C(=O)N[C@@H](C)c3ccc(-n4cc(F)cn4)nc3)C2)c1 [Compound 114]
Outgoing: 8.00 to 9.00
